Below, each entry is listed alongside its reported pKd.
- Assay system: ORF1p WT (Homo sapiens, UniProt Q9UN81 1-338)
- Sequence (Q9UN81 other isoform, or with tags, fused parts or gaps): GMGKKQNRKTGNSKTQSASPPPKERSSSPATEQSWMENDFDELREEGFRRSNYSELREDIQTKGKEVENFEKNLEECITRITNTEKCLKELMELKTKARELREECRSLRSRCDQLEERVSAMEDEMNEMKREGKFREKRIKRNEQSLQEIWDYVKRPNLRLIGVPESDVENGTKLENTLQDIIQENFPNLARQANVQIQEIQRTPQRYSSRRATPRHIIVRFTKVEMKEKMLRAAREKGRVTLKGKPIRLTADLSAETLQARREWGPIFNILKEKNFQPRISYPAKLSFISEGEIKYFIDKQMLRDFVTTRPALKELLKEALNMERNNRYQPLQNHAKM
- Test details: fluorescence anisotropy; 50 mM KCl; 20 mM Hepes pH 7.5, 50 mM KCl (150 or 300 mM in Fig. S1D rows), 1 mM MgCl2, 1 mM DTT; 1 nM 6-FAM oligo; temperature not stated
- Test context: protein: recombinant; tags: tag removed, N-terminal G left; chain copies: 3; label: 5' 6-FAM
Scale: negative log10 of molar concentration, which is what pKd denotes.

Binder	Reported
AAAAAAAAAAAAAAAAAAAAAAAAAAAAAA (ssRNA) [30 nt poly(A)]	8.22

The record that follows has no pKd shown yet.
Find the recorded pKd belonging to ACCATCATCAAAGACCAAAAGTAGATAAAA (ssDNA) [30 nt ssDNA] and report it. 8.08
